I'd be grateful if you could share measured GI50 for these entries.
test system: SF-268 CNS; assay: NCI tumour cell line growth inhibition, 48 h

Sample `COc1cc([N+](=O)[O-])c(OC)cc1-c1nc2sccn2c1/C=N/N=C(N)N` ; GI50 observed: 4.86 µM

Record `CN(C)C(=O)c1cnc2oc3ccc(O)cc3c2c1-c1ccccc1` , field GI50: 20.2 µM

The measured GI50 associated with `COc1cc(OC)c(C(=O)/C=C/c2cccc(C#N)c2)c(OC)c1` reads 1.69 µM

Form field GI50, entry `O=c1c(O)c(-c2ccc(O)c(O)c2)oc2cc(O)cc(O)c12` : 10.2 µM

Per the record, `COc1ccc(/C=C(\C(=O)NCc2cccnc2)S(=O)(=O)c2ccccc2)cc1OC` has GI50 of 3.32 µM

// `COC(=O)Nc1nc2ccc(Oc3cccc(NC(=O)Nc4cc(C(F)(F)F)ccc4F)c3)cc2[nH]1` : GI50 value = 18.5 µM

What the record says about `COC(=O)c1cc2ccccc2c2c3c(ccc12)OCO3` : GI50 is 50.6 µM

// GI50 lookup, compound = COc1ccc(C2=CC(c3ccc(OC)cc3Br)N3C=CSC3=N2)cc1 (stereo not given) , result: 13.7 µM

In plain terms, `O1[As]2O[As]3O[As]1O[As](O2)O3` has a documented GI50 of 0.456 µM

GI50 for `[O-]c1ccccc1/C=N/C(/N=C/c1ccccc1[O-])c1ccccc1O.[O-]c1ccccc1/C=N/C(/N=C/c1ccccc1[O-])c1ccccc1O.[Zr+4]` is 28 µM

Lab note: measured GI50 of `Nc1c(C(=O)c2cccc(-c3cccnc3)c2)cnn1-c1ccc(F)cc1F` was 10.8 µM

Entry under test: `CCc1ccc2c(c1)C(=O)c1c-2n(CCCN=[N+]=[N-])c(=O)c2cc(OC)c(OC)cc12` . Its GI50 was 60.7 µM

For COc1ccc(C2=C(c3ccc(OC)c(OC)c3)C(=O)N3CCCC3C2)cc1 (stereo not given) the compound record lists GI50 as 9.44 µM

Looking up `c1ccc2[nH]c(-c3cc(-c4ccc5c(c4)OCO5)n[nH]3)nc2c1` , I see its GI50 listed as 4.77 µM

Lookup result for `Cc1[nH]c(=O)nc(Nc2ccc(Cl)cc2)c1C(=O)N1CCN(CCO)CC1` ; measured GI50: 65 µM

###

tested on: SNB-75 CNS; experiment: NCI tumour cell line growth inhibition, 48 h; in the data active means GI50 below about 0.43 µM; inactive means the rest
Choose one outcome from this list and give only that: active, inactive

Data request: Can you look up the reported call for `Cc1ccc(-c2csc(NC(=O)N3CCN(c4cc5c(cc4F)c(=O)c(C(=O)O)cn5C4CC4)CC3)n2)cc1` for me?
Data returned: active

Data request: Please state the recorded outcome for this compound: `N#CSCc1ccc(Cl)c(CSC#N)c1`
Data returned: inactive

Data request: Fill in: this test's call for `O=C(Nc1ccc(Oc2cccc(F)c2)c(Cl)c1)c1cnccn1` is ___
Data returned: inactive

Data request: Test call for this compound, please: `Cc1[nH]c2ccc(F)cc2c1-c1nc2c3cccnc3c3ncccc3c2[nH]1`
Data returned: active

Data request: Entry `[O-]c1ccccc1/C=N/C(/N=C/c1ccccc1[O-])c1ccccc1O.[O-]c1ccccc1/C=N/C(/N=C/c1ccccc1[O-])c1ccccc1O.[Zr+4]` : call = ?
Data returned: inactive

Data request: What was the test verdict on `COc1cc(/C=C/C(=O)c2ccc(F)cc2)ccc1OCCCN1CCN(CC(=O)Nc2ccc(Cl)cc2C(=O)c2ccccc2Cl)CC1` ?
Data returned: inactive

Data request: Please indicate how the test categorized `Cc1nn(C)c(COc2ccc(N3CCN(S(=O)(=O)N(C)C)CC3)cc2)c1-c1cccc2c(CCCOc3cccc4ccccc34)c(C(=O)O)n(CCN3CCOCC3)c12` .
Data returned: inactive

Data request: Outcome logged for `Cc1nn(-c2ccc(Cl)cc2)c2nc3c(nc12)C(=O)C(=O)c1ccccc1-3` in this assay:
Data returned: inactive

Data request: # fetch the recorded call for `CC(=O)[O][Sn]([CH2]c1ccccc1)([CH2]c1ccccc1)[CH2]c1ccccc1` here
Data returned: inactive

Data request: Recorded call for `COC(=O)Nc1nc2ccc(Oc3cccc(NC(=O)Nc4cc(C(F)(F)F)ccc4F)c3)cc2[nH]1` ?
Data returned: inactive

Data request: Status in this test for `COc1ccc(C(=O)/C=C/c2cccc(Nc3ccnc4cc(Cl)ccc34)c2)cc1` ?
Data returned: inactive

Data request: For COC(=O)C1=C(C)NC(C)=C(C(=O)OCC(C)C)C1c1ccccc1[N+](=O)[O-] (stereo not given) , which call appears in the assay record?
Data returned: inactive

Data request: Recorded call for `O=C1c2ccc3c4c(ccc(c24)C(=O)N1CCCNCc1ccccc1Cl)C(=O)N(CCCNCc1ccccc1Cl)C3=O` ?
Data returned: inactive

Data request: Recorded test outcome, item `Nc1ccccc1C#C/C=C\C#Cc1cccc(O)c1`
Data returned: inactive

Data request: Per the records of this test, what outcome belongs to `Nc1ncnc2c1c(-c1ccc(Oc3ccccc3)cc1)nn2C[C@@H]1SSC[C@H]1O` ?
Data returned: inactive
